system_under_test: β5i (Homo sapiens, UniProt P20618+P28062)
Construct: protease activity associated with the proteasome complex in cultured cells; endogenous in cells
method: Cell-Based Proteasome Activity/Selectivity Assay (Ramos cells), substrate (ANW)2Rh110
assay_context: highest concentration tested 20 μM, read-out: Ic50 ramos:ac-(anw)2-r110
pIC50: −log10 of the molar value.
recorded_endpoint: pIC50

Known pIC50 results, listed for orientation:
In [3]: df
Out[3]:
                           structure_smiles  recorded_endpoint  assay_result
0  C[C@H](NC(=O)OCc1ccccc1)C(=O)N[C@@H](Cc1c[nH]c2ccccc12)C(=O)N[C@@H](Cc1ccccc1)C(=O)C(=O)N(C)Cc1ccccc1              pIC50          5.92
1  C[C@H](NC(=O)OCc1ccccc1)C(=O)N[C@@H](Cc1ccccn1)C(=O)N[C@@H](Cc1ccccc1)C(=O)C(=O)NCc1ccccc1              pIC50          6.58
2  CCCC[C@H](NC(=O)[C@H](Cc1c[nH]c2ccccc12)NC(=O)[C@H](C)NC(=O)CN1CCOCC1)C(=O)C(=O)NCc1ccccc1              pIC50          6.15

(P) CCCC[C@H](NC(=O)[C@H](Cc1ccc(OC)cc1)NC(=O)[C@H](C)NC(=O)CN1CCOCC1)C(=O)C(=O)NCc1ccccc1
(Q) COc1ccc(C[C@H](NC(=O)[C@H](C)NC(=O)OCc2ccccc2)C(=O)N[C@@H](Cc2ccccc2)C(=O)C(=O)NCc2ccccc2)cc1
**Query** Of P and Q , which one carries the higher reported pIC50? # respond with the chosen item's label
**Result** Q
(Q: 8.15, P: 6.40)

(1) COc1ccc(C[C@H](NC(=O)C2(NC(=O)OCc3ccccc3)CC2)C(=O)N[C@@H](Cc2ccccc2)C(=O)C(=O)NCc2ccccc2)cc1
(2) CC1=C(C(=O)N[C@@H](C)C(=O)N[C@@H](Cc2c[nH]c3ccccc23)C(=O)N[C@@H](Cc2ccccc2)C(=O)C(=O)NCc2ccccc2)Cc2ccccc21
**Query** Which entry shows the lesser value of pIC50 here, 1 or 2 ? # respond with the chosen item's label
**Result** 1

(a) COc1ccc(C[C@H](NC(=O)[C@H](C)NC(=O)C2=C(C)c3ccccc3C2)C(=O)N[C@@H](Cc2ccccc2)C(=O)C(=O)NCc2ccccc2)cc1
(b) C[C@H](NC(=O)OCc1ccccc1)C(=O)N[C@@H](Cc1ccc(Cl)cc1)C(=O)N[C@@H](Cc1ccccc1)C(=O)C(=O)NCc1ccccc1
**Query** Of a and b , which one carries the higher reported pIC50? # respond with the chosen item's label
**Result** a
